- Test system: SK-OV-3 ovarian
- procedureSummary: NCI-60 one-dose screen, 48 h (100 = growth as untreated, 0 = no growth, -100 = all killed)
- assayContext: 10 µM unless noted
About 83,000 compounds went through this panel and 20% of them were active in at least one assay; those are over-represented in the sample as a whole.
valueKind: growth (%)

>  <compoundStructure>
Cc1cc(Nc2ncc(Cl)c(Nc3ccccc3S(=O)(=O)C(C)C)n2)c(OC(C)C)cc1C1CCNCC1

>  <observedResult>
-32.2

$$$$
>  <compoundStructure>
COc1cc2cc(NCc3ccc(F)cc3)nc(C)c2cc1OC

>  <observedResult>
75.3

$$$$
>  <compoundStructure>
FC(F)c1nc2ccccc2n1-c1nc(N2CCOCC2)nc(N2CCOCC2)n1

>  <observedResult>
-46

$$$$
>  <compoundStructure>
Cc1c(Cn2c(C)nc3c(C(=O)O)cc(N4CCOCC4)cc32)cccc1C(F)(F)F

>  <observedResult>
96

$$$$
>  <compoundStructure>
Cn1cnc2c(F)c(Nc3ccc(Br)cc3F)c(C(=O)NOCCO)cc21

>  <observedResult>
50.2

$$$$
